// data source = patent US11174268B2

// reported log10 IC50 for each item listed
# TEST SYSTEM: NaV1.1 (Homo sapiens (Human), UniProt P35498)
# PROTOCOL NOTES: Sodium Influx Assay (Flux), NaV1.1
# Format: cell-based
# CONDITION DESCRIPTION: Trex HEK293 cells, ANG2 dye, inactivated state
Structures can show the parent of a compound that is named as a salt.
Transform log10 | Measure IC50 | Unit µM

Worked cases, answers included:
{"COMPOUND": "CCC(Nc1ccc(S(=O)(=O)Nc2nccs2)cc1Cl)c1ccccn1 (centres unmarked)", "DATA VALUE": 1.35}
{"COMPOUND": "C[C@H](Nc1cc(F)c(S(=O)(=O)Nc2cscn2)cc1Cl)c1cccc(Cl)c1F", "DATA VALUE": 0.58}
{"COMPOUND": "O=S(=O)(Nc1nccs1)c1cc(Cl)c(NC2(c3cccc(F)c3)CCC2)cc1F", "DATA VALUE": 0.57}
{"COMPOUND": "CCC(Nc1cc(F)c(S(=O)(=O)Nc2nccs2)cc1Cl)c1cccnc1 (centres unmarked)", "DATA VALUE": 0.40}

Ask: Please supply the value of reported log10 IC50 for the item C[C@H](Nc1cc(F)c(S(=O)(=O)Nc2cscn2)cc1Cl)c1cc(CN2CCCCC2)ccc1F [Example 256, formate]
Reply: 0.95

Ask: Please supply the value of reported log10 IC50 for the item CCC(Nc1cc(F)c(S(=O)(=O)Nc2nccs2)cc1Cl)c1ccncc1 (centres unmarked)
Reply: 0.20

Ask: Please supply the value of reported log10 IC50 for the item O=S(=O)(Nc1cscn1)c1c(F)cc(NCc2c(F)cccc2CN2CC3(CC3)C2)cc1F [Example 186, formate]
Reply: 1.19

Ask: Please supply the value of reported log10 IC50 for the item "C[C@H](Nc1cc(F)c(S(=O)(=O)Nc2cscn2)cc1Cl)c1cc(OC2COC2)ccc1F"
Reply: 1.35

---

# TEST SYSTEM: NaV1.1 (Homo sapiens (Human), UniProt P35498)
# PROTOCOL NOTES: Sodium Influx Assay (Flux), NaV1.1;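 note: channels co-expressed with human β1 subunit and held open by modulators, cells exposed to compounds for one hour at room temperature, IC50 from percent inhibition of influx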
# Type: cell-based
# CONDITION DESCRIPTION: Trex HEK293 cells, ANG2 dye, inactivated state
Where a name gives a salt, the structure may show the parent alone.
OBSERVED PROPERTY: log10 IC50 (log10 of the value in µM)
Transform log10 | Measure IC50 | Unit µM

{"COMPOUND": "O=S(=O)(Nc1cscn1)c1cc(Cl)c(OC2(c3ccccc3)CC2)cc1F", "log10 IC50": 1.40}
{"COMPOUND": "O=S(=O)(Nc1nccs1)c1cc(Cl)c(N[C@@H](CN2CCCC2)c2ccccc2)cc1F", "log10 IC50": 1.48}
{"COMPOUND": "CN(Cc1cccc(F)c1CNc1cc(F)c(S(=O)(=O)Nc2cscn2)c(F)c1)C1COC1 [Example 181, formate]", "log10 IC50": 1.03}
{"COMPOUND": "O=S(=O)(Nc1cscn1)c1cc(Cl)c(NCc2cc(CCN3CCC3)ccc2F)cc1F [Example 262, formate]", "log10 IC50": 0.92}
{"COMPOUND": "O=S(=O)(Nc1nccs1)c1cc(Cl)c(NC2(c3ccccc3)CCC2)cc1F", "log10 IC50": 0.57}

Ask: Please supply the value of reported log10 IC50 for the item "O=S(=O)(Nc1nccs1)c1ccc(NC2(c3ccccc3)CCC2)c(Cl)c1"
Reply: 0.65

Ask: Please supply the value of reported log10 IC50 for the item "C[C@H](Oc1cc(F)c(S(=O)(=O)Nc2cscn2)cc1Cl)c1ccccc1Cl"
Reply: 0.76

Ask: Please supply the value of reported log10 IC50 for the item "O=S(=O)(Nc1nccs1)c1cc(Cl)c(N[C@H](c2ccccc2F)C(F)(F)F)cc1F"
Reply: -0.08

Ask: Please supply the value of reported log10 IC50 for the item O=S(=O)(Nc1cscn1)c1cc(Cl)c(NCc2cc(F)c(F)cc2CN2CCC2)cc1F [Example 193, formate]
Reply: 0.95

Ask: Please supply the value of reported log10 IC50 for the item "O=S(=O)(Nc1cscn1)c1ccc(NCc2c(F)cccc2CN2CC(F)C2)c(Cl)c1F"
Reply: 0.80

Ask: Please supply the value of reported log10 IC50 for the item O=S(=O)(Nc1nccs1)c1cc(Cl)c(N[C@H](CN2CC(F)C2)c2ccccc2)cc1F [Example 68, 2,2,2-trifluoroacetate]
Reply: 0.71

Ask: Please supply the value of reported log10 IC50 for the item "Cc1cccc(Cl)c1CNc1cc(F)c(S(=O)(=O)Nc2cscn2)cc1Cl"
Reply: 1.30

Ask: Please supply the value of reported log10 IC50 for the item "C[C@H](Oc1cc(F)c(S(=O)(=O)Nc2cscn2)cc1Cl)c1cccc(F)c1"
Reply: 1.20

Ask: Please supply the value of reported log10 IC50 for the item O=S(=O)(Nc1nccs1)c1cc(Cl)c(NC(CN2CCOCC2)c2ccccc2)cc1F (stereo not shown) [Example 74, 2,2,2-trifluoroacetate]
Reply: 0.40

Ask: Please supply the value of reported log10 IC50 for the item "O=S(=O)(Nc1cscn1)c1c(F)cc(NCc2c(F)cccc2CN2CC3(C2)CC3(F)F)cc1F"
Reply: 0.80

Ask: Please supply the value of reported log10 IC50 for the item "C[C@H](Oc1ccc(S(=O)(=O)Nc2nccs2)c(F)c1Cl)c1ccccc1F"
Reply: 0.21
